tested.target: CCR1 (Homo sapiens (Human))
Sequence (P32246 whole entry): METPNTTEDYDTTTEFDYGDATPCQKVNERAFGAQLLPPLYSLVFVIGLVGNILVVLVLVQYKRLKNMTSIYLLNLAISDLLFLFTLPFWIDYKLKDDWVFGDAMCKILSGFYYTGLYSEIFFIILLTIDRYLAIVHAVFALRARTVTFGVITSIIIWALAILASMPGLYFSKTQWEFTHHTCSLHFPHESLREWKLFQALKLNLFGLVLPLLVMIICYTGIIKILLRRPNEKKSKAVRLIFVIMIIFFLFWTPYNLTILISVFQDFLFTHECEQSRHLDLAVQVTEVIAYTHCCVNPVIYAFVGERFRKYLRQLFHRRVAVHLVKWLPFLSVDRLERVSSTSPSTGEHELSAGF
Could you please report measured pIC50 for the items listed next?
Answers are plain numbers, as −log10 of the molar value.

[[record]]
compound = "C[C@@H](O)CNC(=O)N[C@@H]1CCCC[C@@H]1C(=O)N1CC[C@](O)(c2ccc(Cl)cc2)C(C)(C)C1 [Example 76]"
reported_endpoint = "pIC50"
reported = 7.84

[[record]]
compound = "CC1(C)CN(C(=O)[C@H]2CCCC[C@H]2NC(=O)CCc2ccccc2)CC[C@]1(O)c1ccc(Cl)cc1 [Example 60]"
reported_endpoint = "pIC50"
reported = 7.80

[[record]]
compound = "CC1(C)CN(C(=O)[C@H]2CCC[C@H]2NC(=O)c2cccc(C(=O)O)c2)CC[C@]1(O)c1ccc(Cl)cc1 [Example 85]"
reported_endpoint = "pIC50"
reported = 8.80

[[record]]
compound = "CC1(C)CN(C(=O)[C@H]2CCCC[C@@]2(C)NC(=O)c2ccccc2)CC[C@]1(O)c1ccc(Cl)cc1 [Example 104]"
reported_endpoint = "pIC50"
reported = 6.09


Kindly review the next compound as well.
Query (compound): CC1(C)CN(C(=O)[C@H]2CCC[C@H]2NC(=O)[C@@H]2CC[C@H](O)C2)CC[C@]1(O)c1ccc(Cl)cc1 [Example 83] ; field requested: pIC50
7.85

====

Quick record: pIC50, CCR1 (Homo sapiens (Human)).
Answers are plain numbers, as −log10 of the molar value.

Give pIC50 for all molecules that follow.
1. CC1(C)CN(C(=O)[C@H]2CCC[C@H]2NC(=O)C2CCCC2)CC[C@]1(O)c1ccc(Cl)cc1
2. CC(C)(C)OC(=O)N[C@@H]1CCC[C@@H]1C(=O)N1CC[C@](O)(c2ccc(Cl)cc2)C(C)(C)C1
3. CC1(C)CN(C(=O)[C@H]2CCCC[C@H]2NC(=O)[C@H](O)c2ccccc2)CC[C@]1(O)c1ccc(Cl)cc1
4. COC(=O)N[C@@H]1CCCC[C@@H]1C(=O)N1CC[C@](O)(c2ccc(Cl)cc2)C(C)(C)C1

8.89
7.92
6.07
6.00
